All values here come from patent US20140303084A1.

- system.tested: human Factor IXa (human, UniProt P00740 47-191; P00740 227-461)
- assay.notes: cell-based or functional assay
Square brackets hold non-standard residues; d marks the D form. Ends that are not written are not given here. NMeL = CN[C@@H](CC(C)C)C(=O)O
Exercise: for every item that follows, state its recorded EC50 [µM], FXa generation assay.

# binder, EC50 [µM], FXa generation assay
records = [
    ("RRAPGKLTC[NMeL]ASYCWLFWTGIA (not fully specified (bridges); printed as RRAPGKLTC-MeLeu-ASYCWLFWTGIA; cysteine pairing not given here) [RRAPGKLTC-MeLeu-ASYCWLFWTGIA]", "> 1 µM"),
    ("LLQIPNLTCLGSYCWLDNGVYA", "> 50 µM"),
    ("EQTCLASYCWLF", "> 20 µM"),
]

// input: 2 binders below; output: EC50 [µM], FXa generation assay for each
1. ALTCLASYCWLF
2. KLTCLAS[dY]CWLF (not fully specified (bridges); printed as KLTCLASyCWLF; cysteine pairing not given here) [KLTCLASyCWLF]

Completion:
["> 1 µM", "> 5 µM"]

// input: 5 binders below; output: EC50 [µM], FXa generation assay for each
1. [dR]RAAGKLTCLASACWLFATGIA (not fully specified (C-terminus); printed as rRAAGKLTCLASACWLFATGIA; cysteine pairing not given here) [rRAAGKLTCLASACWLFATGIA]
2. RRAPKKLQCLASYCWLFWTGIA
3. RRAPGKLTCLASYCWLFATGVTFPQIWAIPSP [RRAPGKLTCLASYCWLF ATGVT FPQIWAIPSP]
4. RRAPGKLTCLASYCWLFWTGLLDYPTPQSHEP [RRAPGKLTCLASYCWLF WTGLL DYPTPQSHEP]
5. ERYRLDMTCMASQCWQFPPAAG

Completion:
1. > 1 µM
2. > 1 µM
3. > 1 µM
4. < 0.5 µM
5. < 0.5 µM

// input: 2 binders below; output: EC50 [µM], FXa generation assay for each
1. MEGTRQPTCLASYCSPFQYVAP
2. AQTRVARCCQLF

Completion:
1. > 20 µM
2. > 20 µM
